# assay-text: Chemical stability in human blood plasma
# Type: in vitro ADME
# condition-summary: pooled human blood plasma; 10 µM; 4 hours at 37°C; substance amount in % after thermostatting
Overview of reported Stability in blood plasma, % across a group of compounds:
metric: Stability in blood plasma, % (%)

compound="Cn1cc(-c2ccc(-c3ccnc4ccc(N5CCCC5=O)cc34)cc2)cn1 [CDK8-6-13]" value_observed=98.9
compound="O=C(c1ccccn1)c1c[nH]c2ncc(-c3ccc(N4CCOCC4)cc3)cc12 [CDK8-4-36]" value_observed=100
compound="COc1ccc(-c2cnc3[nH]cc(C(=O)c4cccnc4)c3c2)c(C#N)c1 [CDK8-4-28]" value_observed=100
compound="COC1CN(C(=O)c2cnc3cncc(-c4ccc(-c5cnn(C)c5)cc4)c3c2)C1 [CDK8-3-15]" value_observed=75.1
compound="O=C(c1ccncc1)c1c[nH]c2ncc(-c3ccc(N4CCOCC4)cc3)cc12 [CDK8-4-38]" value_observed=100
compound="Cn1cc(-c2ccc(-c3cncc4ncc(C(=O)N5CCC5)cc34)cc2)cn1 [CDK8-3-14]" value_observed=100
compound="Cn1cc(-c2ccc(-n3cnc4ccc(N5CC(C(=O)N6CCOCC6)C5)c(F)c43)cc2)cn1 [CDK8-1-20]" value_observed=100
compound="COc1cc(-c2cnc3[nH]cc(C(=O)c4ccccn4)c3c2)ccc1N(C)C [CDK8-4-21]" value_observed=100
compound="O=C(c1ccccn1)c1c[nH]c2ncc(-c3ccc(N4CCOCC4)c(O)c3)cc12 [CDK8-4-3]" value_observed=100
compound="Cn1cc(-c2ccc(-c3cncc4ncc(N5CC(C(=O)N6CCOCC6)C5)cc34)cc2)cn1 [CDK8-3-9]" value_observed=100
compound="Cn1cc(-c2ccc(-c3cncc4ncc(C(=O)N5CC[C@@H](O)C5)cc34)cc2)cn1 [CDK8-3-4]" value_observed=100
compound="COC1CN(C(=O)c2ccc3nccc(-c4ccc(-c5cn[nH]c5)cc4)c3c2)C1 [CDK8-6-4]" value_observed=100
compound="COCCNC(=O)c1cnc2cncc(-c3ccc(-c4cnn(C)c4)cc3)c2c1 [CDK8-3-18]" value_observed=100
compound="Cn1cc(-c2ccc(-c3cnc(N)c4ncc(C(=O)N5CCC5)cc34)cc2)cn1 [CDK8-3-26]" value_observed=95.8
compound="CN(C)c1ccc(-c2cnc3[nH]cc(C(=O)c4cccnc4)c3c2)cc1O [CDK8-4-5]" value_observed=100

---

# assay-text: General cytotoxicity test on HepG2 cells
# Type: cell-based
# condition-summary: human, HepG2 cells; 72 h incubation; 200 to 0.78 µM; average values of several tests; read-out: Hep-G2 CC50, mkM
metric: CC50 at 72 h (µM)

compound_structure_string=O=C(c1ccc2ncn(-c3ccc(-c4cn[nH]c4)cc3)c2c1)N1CCCCC1 metric="CC50 at 72 h" result_qualifier== value_observed=59.1
compound_structure_string=CN1CCN(Cc2ccc(-c3ccnc4ccc(N5CCC(C)(C(N)=O)CC5)cc34)cc2)CC1 metric="CC50 at 72 h" result_qualifier=> value_observed=60
compound_structure_string=O=C(c1ccccn1)c1c[nH]c2ncc(-c3ccc(N4CCOCC4)cc3)cc12 metric="CC50 at 72 h" result_qualifier== value_observed=17
compound_structure_string=CO[C@@H]1CCCN(C(=O)c2cnc3cncc(-c4ccc(-c5cnn(C)c5)cc4)c3c2)C1 metric="CC50 at 72 h" result_qualifier=> value_observed=100
compound_structure_string=COCCNC(=O)c1cnc2cncc(-c3ccc(-c4cnn(C)c4)cc3)c2c1 metric="CC50 at 72 h" result_qualifier=> value_observed=200
compound_structure_string=COCCNC(=O)c1cnc2c(N)ncc(-c3ccc(-c4cnn(C)c4)cc3)c2c1 metric="CC50 at 72 h" result_qualifier=> value_observed=200
compound_structure_string=COCCOC(=O)c1cnc2cncc(-c3ccc(-c4cnn(C)c4)cc3)c2c1 metric="CC50 at 72 h" result_qualifier== value_observed=48.4

---

# assay-text: Enzyme stability in human liver S9 fractions
# Assay type: in vitro ADME
# condition-summary: pH 7.4; 0,5 mg/mL pooled human liver S9 fractions; 10 µM compound; 37°C; pH=7,4
Overview of reported microsomal CLint at 10 µM across a group of compounds:
metric: microsomal CLint at 10 µM (µL/min/mg)

compound="COCCNC(=O)c1cnc2c(N)ncc(-c3ccc(-c4cnn(C)c4)cc3)c2c1 [CDK8-3-24]" metric="microsomal CLint at 10 µM" unit_string=µL/min/mg value_observed=4.6
compound="COCCN(C)C(=O)c1cnc2c(N)ncc(-c3ccc(-c4cnn(C)c4)cc3)c2c1 [CDK8-3-32]" metric="microsomal CLint at 10 µM" unit_string=µL/min/mg value_observed=3.8
compound="CN(C)C(=O)c1cnc2cncc(-c3ccc(-c4cnn(C)c4)cc3)c2c1 [CDK8-3-22]" metric="microsomal CLint at 10 µM" unit_string=µL/min/mg value_observed=3
compound="COCCN(C)C(=O)c1cnc2cncc(-c3ccc(-c4cnn(C)c4)cc3)c2c1 [CDK8-3-25]" metric="microsomal CLint at 10 µM" unit_string=µL/min/mg value_observed=3.3
compound="CCN(CC)C(=O)c1cnc2cncc(-c3ccc(-c4cnn(C)c4)cc3)c2c1 [CDK8-3-23]" metric="microsomal CLint at 10 µM" unit_string=µL/min/mg value_observed=9.2
compound="Cn1cc(-c2ccc(-c3cnc(N)c4ncc(C(=O)N5CCOCC5)cc34)cc2)cn1 [CDK8-3-27]" metric="microsomal CLint at 10 µM" unit_string=µL/min/mg value_observed=1.55
compound="Cn1cc(-c2ccc(-c3cnc(N)c4ncc(C(=O)N5CCC5)cc34)cc2)cn1 [CDK8-3-26]" metric="microsomal CLint at 10 µM" unit_string=µL/min/mg value_observed=3.25
compound="CO[C@@H]1CCN(C(=O)c2cnc3cncc(-c4ccc(-c5cnn(C)c5)cc4)c3c2)C1 [CDK8-3-19]" metric="microsomal CLint at 10 µM" unit_string=µL/min/mg value_observed=2.9
compound="CO[C@@H]1CCCN(C(=O)c2cnc3cncc(-c4ccc(-c5cnn(C)c5)cc4)c3c2)C1 [CDK8-3-21]" metric="microsomal CLint at 10 µM" unit_string=µL/min/mg value_observed=12.9
compound="Cn1cc(-c2ccc(-c3cnc(N)c4ncc(C(=O)NCC5CC5)cc34)cc2)cn1 [CDK8-3-40]" metric="microsomal CLint at 10 µM" unit_string=µL/min/mg value_observed=2.95
compound="Cn1cc(-c2ccc(-c3cnc(N)c4ncc(C(=O)NCCO)cc34)cc2)cn1 [CDK8-3-42]" metric="microsomal CLint at 10 µM" unit_string=µL/min/mg value_observed=0.5

---

# assay-text: General cytotoxicity test on HepG2 cells
# Assay type: cell-based
# condition-summary: human; 72 h incubation; 200 to 0.78 µM; average values of several tests; read-out: Hep-G2 CC50, mkM
metric: CC50 at 72 h

compound_structure_string=O=C(C1CN(c2ccc3ncn(-c4ccc(-c5cn[nH]c5)cc4)c3c2F)C1)N1CCOCC1 metric="CC50 at 72 h" value_observed="> 50 µM"
compound_structure_string=COc1cc(-c2cnc3[nH]cc(C(=O)c4ccncc4)c3c2)ccc1N1CCOCC1 metric="CC50 at 72 h" value_observed="> 100 µM"

---

# assay-text: Chemical stability in human blood plasma
# Type: in vitro ADME
# condition-summary: pooled human blood plasma; 10 µM; 4 hours at 37°C; substance amount in % after thermostatting
Overview of reported Stability in blood plasma, % across a group of molecules:
metric: Stability in blood plasma, % (%)

molecule="COc1cc(-c2cnc3[nH]cc(C(=O)c4ccccn4)c3c2)ccc1N1CCOCC1 [CDK8-4-23]" value_observed=87.4
molecule="O=C(c1cccnc1)c1c[nH]c2ncc(-c3ccc(N4CCOCC4)c(O)c3)cc12 [CDK8-4-7]" value_observed=93.8
molecule="O=C(C1CN(c2ccc3ncn(-c4ccc(-c5cn[nH]c5)cc4)c3c2F)C1)N1CCOCC1 [CDK8-1-14]" value_observed=100
molecule="Cn1cc(-c2ccc(-c3ccc4nccc(C(=O)N5CCCCC5)c4c3)cc2)cn1 [CDK8-5-8]" value_observed=98.2

---

# assay-text: General cytotoxicity test on HepG2 cells
# Type: cell-based
# condition-summary: human, HepG2 cells; 72 h incubation; 200 to 0.78 µM; average values of several tests; read-out: Hep-G2 CC50, mkM
Overview of reported CC50 at 72 h across a group of compounds:
metric: CC50 at 72 h

compound="CN(C)c1ccc(-c2cnc3[nH]cc(C(=O)c4cccnc4)c3c2)c(C#N)c1 [CDK8-4-26]" metric="CC50 at 72 h" value_observed="> 100 µM"
compound="CN(C)c1ccc(-c2cnc3[nH]cc(C(=O)c4cccnc4)c3c2)cc1 [CDK8-4-39]" metric="CC50 at 72 h" value_observed="> 100 µM"
compound="CN1CCN(C(=O)c2cnc3cncc(-c4ccc(-c5cnn(C)c5)cc4)c3c2)CC1 [CDK8-3-30]" metric="CC50 at 72 h" value_observed="100 µM"
compound="CN(C)CCN(C)C(=O)c1cnc2cncc(-c3ccc(-c4cnn(C)c4)cc3)c2c1 [CDK8-3-35]" metric="CC50 at 72 h" value_observed="77.4 µM"
compound="O=C(c1cccnc1)c1c[nH]c2ncc(-c3ccc(N4CCOCC4)c(O)c3)cc12 [CDK8-4-7]" metric="CC50 at 72 h" value_observed="> 200 µM"
compound="O=C(c1ccncc1)c1c[nH]c2ncc(-c3ccc(N4CCOCC4)cc3)cc12 [CDK8-4-38]" metric="CC50 at 72 h" value_observed="> 100 µM"
compound="CN(C)c1ccc(-c2cnc3[nH]cc(C(=O)c4ccncc4)c3c2)cc1 [CDK8-4-40]" metric="CC50 at 72 h" value_observed="> 100 µM"
compound="O=C(c1ccc2ncn(-c3ccc(-c4cn[nH]c4)cc3)c2c1)N1CCC1 [CDK8-1-5]" metric="CC50 at 72 h" value_observed="81.1 µM"
compound="O=C(c1ccncc1)c1c[nH]c2ncc(-c3ccc(N4CCOCC4)c(O)c3)cc12 [CDK8-4-11]" metric="CC50 at 72 h" value_observed="> 200 µM"
compound="Cn1cc(-c2ccc(-c3cnc(N)c4ncc(C(=O)NCC5CC5)cc34)cc2)cn1 [CDK8-3-40]" metric="CC50 at 72 h" value_observed="200 µM"
compound="COC1CN(C(=O)c2ccc3nccc(-c4ccc(-c5cn[nH]c5)cc4)c3c2)C1 [CDK8-6-4]" metric="CC50 at 72 h" value_observed="66.6 µM"
compound="Cn1cc(-c2ccc(-c3ccnc4ccc(N5CCCC5=O)cc34)cc2)cn1 [CDK8-6-13]" metric="CC50 at 72 h" value_observed="> 200 µM"
compound="Cn1cc(-c2ccc(-c3cnc(N)c4ncc(C(=O)N5CCC5)cc34)cc2)cn1 [CDK8-3-26]" metric="CC50 at 72 h" value_observed="4.9 µM"
compound="COC(=O)c1ccc(-n2cnc3c(F)cc(N4CC(C(=O)Nc5ccccc5)C4)cc32)cc1 [CDK8-1-7E]" metric="CC50 at 72 h" value_observed="> 100 µM"
compound="Cn1cc(-c2ccc(-c3cncc4ncc(C(=O)N5CCC5)cc34)cc2)cn1 [CDK8-3-14]" metric="CC50 at 72 h" value_observed="> 100 µM"
compound="COc1cc(-c2cnc3[nH]cc(C(=O)c4ccccn4)c3c2)ccc1N(C)C [CDK8-4-21]" metric="CC50 at 72 h" value_observed="4.7 µM"
compound="COc1cccc(C(=O)c2c[nH]c3ncc(-c4ccc(N(C)C)cc4)cc23)c1 [CDK8-4-34]" metric="CC50 at 72 h" value_observed="2.6 µM"
compound="CO[C@@H]1CCN(C(=O)c2cnc3cncc(-c4ccc(-c5cnn(C)c5)cc4)c3c2)C1 [CDK8-3-19]" metric="CC50 at 72 h" value_observed="> 100 µM"
compound="CN1CCN(C(=O)c2cnc3cncc(-c4ccc(N(C)C)cc4)c3c2)CC1 [CDK8-3-8]" metric="CC50 at 72 h" value_observed="> 200 µM"
compound="Cn1cc(-c2ccc(-c3cncc4ncc(N5CC(C(=O)N6CCOCC6)C5)cc34)cc2)cn1 [CDK8-3-9]" metric="CC50 at 72 h" value_observed="> 20 µM"
compound="CN(C)c1ccc(-c2cnc3[nH]cc(C(=O)c4cccnc4)c3c2)cc1O [CDK8-4-5]" metric="CC50 at 72 h" value_observed="7.7 µM"
compound="Cn1cc(-c2ccc(-n3cnc4ccc(C(=O)N5CCC5)cc43)cc2)cn1 [CDK8-1-18]" metric="CC50 at 72 h" value_observed="> 100 µM"
compound="COc1cc(-c2cnc3[nH]cc(C(=O)c4cccnc4)c3c2)ccc1N1CCOCC1 [CDK8-4-27]" metric="CC50 at 72 h" value_observed="> 100 µM"
compound="N=C(c1ccnc2ccc(-c3ccc(-c4cn[nH]c4)cc3)cc12)N1CCCCC1 [CDK8-5-4i]" metric="CC50 at 72 h" value_observed="> 100 µM"
compound="O=C(c1ccnc2ccc(-c3ccc(-c4cn[nH]c4)cc3)cc12)N1CCCCC1 [CDK8-5-4]" metric="CC50 at 72 h" value_observed="66.1 µM"
compound="Cn1cc(-c2ccc(-c3cncc4ncc(C(=O)N5CC[C@@H](O)C5)cc34)cc2)cn1 [CDK8-3-4]" metric="CC50 at 72 h" value_observed="76.4 µM"
compound="COCCN(C)C(=O)c1cnc2cncc(-c3ccc(-c4cnn(C)c4)cc3)c2c1 [CDK8-3-25]" metric="CC50 at 72 h" value_observed="> 100 µM"
compound="O=C(C1CN(c2ccc3ncn(-c4ccc(-c5cn[nH]c5)cc4)c3c2F)C1)N1CCOCC1 [CDK8-1-14]" metric="CC50 at 72 h" value_observed="> 100 µM"
compound="COCCNC(=O)c1ccc2nccc(-c3ccc(-c4cnn(C)c4)cc3)c2c1 [CDK8-6-14]" metric="CC50 at 72 h" value_observed="> 50 µM"
compound="Cn1cc(-c2ccc(-c3cnc(N)c4ncc(C(=O)N5CCOCC5)cc34)cc2)cn1 [CDK8-3-27]" metric="CC50 at 72 h" value_observed="19.4 µM"
compound="Cn1cc(-c2ccc(-c3cncc4ncc(C(=O)N5CCCC5)cc34)cc2)cn1 [CDK8-3-16]" metric="CC50 at 72 h" value_observed="> 100 µM"
compound="Cn1cc(-c2ccc(-c3cncc4ncc(N5CCCC5=O)cc34)cc2)cn1 [CDK8-3-17]" metric="CC50 at 72 h" value_observed="> 20 µM"
compound="O=C(C1CN(c2cc(F)c3ncn(-c4ccc(-c5cn[nH]c5)cc4)c3c2)C1)N1CCOCC1 [CDK8-1-8]" metric="CC50 at 72 h" value_observed="> 200 µM"
compound="Cn1cc(-c2ccc(-c3cnc(N)c4ncc(C(=O)NCCO)cc34)cc2)cn1 [CDK8-3-42]" metric="CC50 at 72 h" value_observed="15.9 µM"

Cited source for all entries: patent EP3666770A1
